- Organism: Homo sapiens
- protocol_text: Ratio of EC50 for human cloned beta-1 adrenergic receptor to EC50 for human cloned beta3 adrenergic receptor
observable: Ratio EC50
One number for each entry.

Consider the following illustrative entries.
chemical_structure: Cc1cc(C(=O)O)ccc1-c1ccc2c(c1)C[C@@H](NC[C@H](O)c1ccc(Cl)cc1)CC2
value: 400
--
chemical_structure: CN(C)c1cc(Oc2ccc3c(c2)C[C@@H](NC[C@H](O)c2ccc(Cl)nc2)CC3)cc(C(=O)O)c1
value: 155

Alright, here's another molecule for you.
IN: Which Ratio EC50 reading was recorded for the molecule O=C(O)c1ccc(-c2ccc3c(c2)C[C@@H](NC[C@H](O)c2ccc(C(F)(F)F)cc2)CC3)cc1 ?
OUT: 221
